binders and their reported MCF7 pHER3 IC50
Target: human HER3 endogenously expressed on human cancer cells (SK-Br-3, BT-474, MCF7) (human, UniProt P21860 20-1342)
Assay: cell-based or functional assay

Use these answered entries as a reference point.
MOR12515 (antibody, human IgG1, lambda, V domains shown, Tested as IgG) VH: QVQLVQSGAEVKKPGASVKVSCKASGYTFTSYDIHWVRQAPGQGLEWMGRIDPYSGNTNYAQKFQGRVTMTRDTSISTAYMELSRLRSEDTAVYYCARGSFYTRDSYFDVWGQGTLVTVSS VL: DIALTQPASVSGSPGQSITISCTGTSSDVGTYNQVSWYQQHPGKAPKLMIYGVSKRPSGVSNRFSGSKSGNTASLTISGLQAEDEADYYCYSRDSPMDQVFGGGTKLTVLG ... 674 pM
MOR12921 (antibody, human IgG1, lambda, V domains shown, Tested as IgG) VH: QVQLVQSGAEVKKPGASVKVSCKASGYTFTGYYMHWVRQAPGQGLEWMGDIDPHSGNAVYAQKFQGRVTMTRDTSISTAYMELSRLRSEDTAVYYCARGSFYTRDSYFDVWGQGTLVTVSS VL: DIALTQPASVSGSPGQSITISCTGTSSDVGTYNQVSWYQQHPGKAPKLMIYGVSKRPSGVSNRFSGSKSGNTASLTISGLQAEDEADYYCSSRDLIGHYVFGGGTKLTVLG ... 1230 pM

Value of measured MCF7 pHER3 IC50 for the entry MOR12514 (antibody, human IgG1, lambda, V domains shown, Tested as IgG) VH: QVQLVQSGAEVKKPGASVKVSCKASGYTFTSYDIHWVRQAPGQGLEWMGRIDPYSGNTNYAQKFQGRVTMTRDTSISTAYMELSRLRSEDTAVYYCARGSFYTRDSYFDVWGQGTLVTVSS VL: DIALTQPASVSGSPGQSITISCTGTSSDVGTYNQVSWYQQHPGKAPKLMIYGVSKRPSGVSNRFSGSKSGNTASLTISGLQAEDEADYYCQVRDMSLFDVFGGGTKLTVLG : 435 pM

These measurements were taken from patent US20130251703A1.
